TESTED TARGET: UniProt A0A3F3IEK2
EXPERIMENT DESCRIPTION: Inhibition of recombinant salmonella enterica threonyl-tRNA synthetase assessed as reduction in enzyme activity incubated for 20 min by Kinase Glo luminescence assay
pIC50: −log10 of the molar value.
ENDPOINT: pIC50

a = C[C@@H](O)[C@H](N)C(=O)N[C@@H](CNC(=O)CCn1cnc2cc(Cl)c(Cl)cc2c1=O)c1cccc(-c2ccccc2)c1
b = C[C@@H](O)[C@H](N)C(=O)N[C@@H](CNC(=O)CCn1cnc2cc(Br)c(Cl)cc2c1=O)c1cccc(-c2ccc3[nH]ccc3c2)c1
Please let me know which one, a or b , has a lower measured pIC50 value. Please identify the chosen entry by its label. b
(b: 5.79, a: 6.28)

====

Tested on: Staphylococcus aureus
EXPERIMENT DESCRIPTION: Antibacterial activity against Staphylococcus aureus MRSA R3708 strain assessed as inhibition of bacterial growth incubated for 8 hrs by CLSI protocol based microdilution assay
Format: functional
ENDPOINT: MIC (µg/mL)

Examples with their reported MIC follow.
CN[C@H](C(=O)N[C@@H](CNC(=O)CCn1cnc2cc(Cl)c(F)cc2c1=O)c1cccc(-c2ccccc2)c1)[C@@H](C)O | 32
C[C@@H](O)[C@H](N)C(=O)N[C@@H](CNC(=O)CCn1cnc2cc(Br)c(Cl)cc2c1=O)c1cccc(-c2ccc3[nH]ccc3c2)c1 | 32
C[C@@H](O)[C@H](N)C(=O)N[C@@H](CNC(=O)CCn1cnc2cc(Cl)c(F)cc2c1=O)c1cccc(-c2ccccc2)c1 | 32
C[C@@H](O)[C@H](N)C(=O)N[C@@H](CNC(=O)CCn1cnc2cc(Cl)c(Cl)cc2c1=O)c1cccc(-c2ccc(Cl)cc2)c1 | 4
C[C@@H](O)[C@H](N)C(=O)N[C@@H](CNC(=O)CCn1cnc2cc(Br)c(Cl)cc2c1=O)c1cccc(-c2ccccc2)c1 | 32

P = C[C@@H](O)[C@H](N)C(=O)N[C@@H](CNC(=O)CCn1cnc2cc(Cl)c(Cl)cc2c1=O)c1cccc(-c2ccccc2)c1
Q = C[C@@H](O)[C@H](N)C(=O)N[C@@H](CNC(=O)CCn1cnc2cc(Br)c(Cl)cc2c1=O)c1cccc(-c2ccc3ccccc3c2)c1
I need your help: which of the pair P , Q has higher MIC? Write down the label of the entry you select. P

A = C[C@@H](O)[C@H](N)C(=O)N[C@@H](CNC(=O)CCn1cnc2cc(Cl)c(Cl)cc2c1=O)c1cccc(-c2ccc(C(F)(F)F)cc2)c1
B = C[C@@H](O)[C@H](N)C(=O)N(CCCCCCn1cnc2cc(Br)c(Cl)cc2c1=O)Cc1cccc(-c2ccc3c(c2)CNC3=O)c1
Could you point out whether the larger MIC belongs to A or to B ? Identify your pick by its label. B
(B: 64 µg/mL, A: 4 µg/mL)

====

TESTED TARGET: Threonine--tRNA ligase (Salmonella enterica)
EXPERIMENT DESCRIPTION: Inhibition of recombinant salmonella enterica threonyl-tRNA synthetase assessed as reduction in enzyme activity at 10 uM incubated for 20 min by Kinase Glo luminescence assay relative to control
ENDPOINT: inhibition (%)

C[C@@H](O)[C@H](N)C(=O)N[C@@H](CNC(=O)CCn1cnc2cc(Cl)c(Cl)cc2c1=O)c1cccc(-c2ccc(Cl)cc2)c1 | 75

P = CN[C@H](C(=O)N[C@@H](CNC(=O)CCn1cnc2cc(Cl)c(F)cc2c1=O)c1cccc(-c2ccccc2)c1)[C@@H](C)O
Q = C[C@@H](O)[C@H](N)C(=O)N[C@H](CNC(=O)CCn1cnc2cc(Br)c(Cl)cc2c1=O)c1cccc(-c2ccccc2)c1
Please choose the item with the lower inhibition value from this pair: P and Q Selection: enter the item's label. Q
(Q: 8%, P: 73%)

====

TESTED TARGET: Threonine--tRNA ligase (Salmonella enterica)
Sequence (A0A3F3IEK2 whole entry): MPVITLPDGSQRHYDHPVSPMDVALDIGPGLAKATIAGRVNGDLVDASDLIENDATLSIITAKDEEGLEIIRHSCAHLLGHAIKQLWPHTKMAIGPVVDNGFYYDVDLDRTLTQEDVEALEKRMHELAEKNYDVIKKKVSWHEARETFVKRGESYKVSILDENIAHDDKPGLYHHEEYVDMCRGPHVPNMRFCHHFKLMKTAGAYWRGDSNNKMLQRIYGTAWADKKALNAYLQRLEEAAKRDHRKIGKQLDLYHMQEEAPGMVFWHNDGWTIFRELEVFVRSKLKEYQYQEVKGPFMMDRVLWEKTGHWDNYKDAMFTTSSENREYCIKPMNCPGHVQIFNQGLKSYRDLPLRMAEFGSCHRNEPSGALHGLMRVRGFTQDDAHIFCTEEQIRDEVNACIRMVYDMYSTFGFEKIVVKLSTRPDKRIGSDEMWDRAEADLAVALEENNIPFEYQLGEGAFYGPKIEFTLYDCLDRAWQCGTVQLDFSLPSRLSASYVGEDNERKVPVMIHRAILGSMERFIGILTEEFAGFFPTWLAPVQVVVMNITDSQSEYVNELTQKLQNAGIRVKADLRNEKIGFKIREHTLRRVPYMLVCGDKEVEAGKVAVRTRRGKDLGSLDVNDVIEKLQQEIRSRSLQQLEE
EXPERIMENT DESCRIPTION: Inhibition of recombinant salmonella enterica threonyl-tRNA synthetase assessed as reduction in enzyme activity incubated for 20 min by Kinase Glo luminescence assay
pIC50: −log10 of the molar value.
ENDPOINT: pIC50

Sample records with pIC50:
C[C@@H](O)[C@H](N)C(=O)N[C@@H](CNC(=O)CCn1cnc2cc(Cl)c(Cl)cc2c1=O)c1cccc(-c2ccc(C(F)(F)F)cc2)c1 | 6.24
C[C@@H](O)[C@H](N)C(=O)N[C@H](CNC(=O)CCn1cnc2cc(Br)c(Cl)cc2c1=O)c1cccc(-c2ccc3c(N)ncnc3c2)c1 | 5.18

a = C[C@@H](O)[C@H](N)C(=O)N(CCCCCCn1cnc2cc(Br)c(Cl)cc2c1=O)Cc1cccc(-c2ccc3c(c2)CNC3=O)c1
b = C[C@@H](O)[C@H](N)C(=O)N[C@@H](CNC(=O)CCn1cnc2cc(Cl)c(Cl)cc2c1=O)c1cccc(-c2ccc3c(c2)CNC3=O)c1
Identify the entry with the larger pIC50. Options: a and b When you have decided, please share the label of that item. b
(b: 7.72, a: 5.25)

====

TESTED TARGET: Threonine--tRNA ligase (Salmonella enterica)
EXPERIMENT DESCRIPTION: Binding affinity to full length recombinant salmonella enterica threonyl-tRNA synthetase assessed as dissociation constant in presence of ATP by isothermal titration calorimetry assay
ENDPOINT: Kd (nM)
Numbers only here, please. The scale is nM.

Note Kd for the compound shown: C[C@@H](O)[C@H](N)C(=O)N[C@@H](CNC(=O)CCn1cnc2cc(Cl)c(Cl)cc2c1=O)c1cccc(-c2ccc3c(c2)CNC3=O)c1 75.1

====

// reported MIC for each item listed
System: Escherichia coli
EXPERIMENT DESCRIPTION: Antibacterial activity against Escherichia coli ATCC 25922 strain assessed as inhibition of bacterial growth incubated for 8 hrs by CLSI protocol based microdilution assay
Type: functional

Check out these entries, answers already filled in.
CC1(C)S[C@@H]2[C@H](NC(=O)[C@H](N)c3ccccc3)C(=O)N2[C@H]1C(=O)O | 1 µg/mL
C[C@@H](O)[C@H](N)C(=O)N[C@@H](CNC(=O)CCn1cnc2cc(Cl)c(Cl)cc2c1=O)c1cccc(-c2ccc3c(c2)CNC3=O)c1 | ≥ 128 µg/mL
C[C@@H](O)[C@H](N)C(=O)N[C@@H](CNC(=O)CCn1cnc2cc(Br)c(Cl)cc2c1=O)c1cccc(-c2ccc3[nH]ccc3c2)c1 | ≥ 128 µg/mL

Pending molecule:
# return recorded MIC for entry C[C@@H](O)[C@H](N)C(=O)NCC=CCn1cnc2cc(Cl)c(Cl)cc2c1=O ≥ 128 µg/mL

====

TESTED TARGET: Threonine--tRNA ligase (Salmonella enterica)
Sequence (A0A3F3IEK2 whole entry): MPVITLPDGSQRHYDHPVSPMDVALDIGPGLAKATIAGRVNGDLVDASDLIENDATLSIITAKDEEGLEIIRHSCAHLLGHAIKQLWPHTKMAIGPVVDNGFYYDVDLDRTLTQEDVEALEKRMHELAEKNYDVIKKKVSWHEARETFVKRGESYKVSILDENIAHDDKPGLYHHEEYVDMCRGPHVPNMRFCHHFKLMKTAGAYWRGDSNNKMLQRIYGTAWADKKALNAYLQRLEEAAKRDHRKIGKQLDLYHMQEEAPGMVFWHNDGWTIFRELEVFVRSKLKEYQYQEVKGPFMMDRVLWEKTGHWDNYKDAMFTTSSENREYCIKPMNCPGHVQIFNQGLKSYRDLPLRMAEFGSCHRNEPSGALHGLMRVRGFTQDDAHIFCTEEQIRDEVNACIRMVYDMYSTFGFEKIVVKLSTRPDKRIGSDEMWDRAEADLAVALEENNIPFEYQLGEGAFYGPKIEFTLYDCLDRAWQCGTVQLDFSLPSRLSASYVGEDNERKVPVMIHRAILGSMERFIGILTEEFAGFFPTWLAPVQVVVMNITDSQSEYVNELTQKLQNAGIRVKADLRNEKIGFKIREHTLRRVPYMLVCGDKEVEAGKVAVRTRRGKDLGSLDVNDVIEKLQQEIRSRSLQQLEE
EXPERIMENT DESCRIPTION: Binding affinity to full length recombinant salmonella enterica threonyl-tRNA synthetase assessed as dissociation constant in presence of tRNA Leucine by isothermal titration calorimetry assay
ENDPOINT: pKd
Entry type: numeric. Quantity: pKd, the -log10 of concentration in molar units.

Using the record for C[C@@H](O)[C@H](N)C(=O)N[C@@H](CNC(=O)CCn1cnc2cc(Cl)c(Cl)cc2c1=O)c1cccc(-c2ccc3c(c2)CNC3=O)c1 , state its measured pKd. 7.43
